Entries and their log10(IC50)
- measuredOn: human TLR7 (Homo sapiens, UniProt Q9NYK1)
- Sequence (Q9NYK1 27-1049): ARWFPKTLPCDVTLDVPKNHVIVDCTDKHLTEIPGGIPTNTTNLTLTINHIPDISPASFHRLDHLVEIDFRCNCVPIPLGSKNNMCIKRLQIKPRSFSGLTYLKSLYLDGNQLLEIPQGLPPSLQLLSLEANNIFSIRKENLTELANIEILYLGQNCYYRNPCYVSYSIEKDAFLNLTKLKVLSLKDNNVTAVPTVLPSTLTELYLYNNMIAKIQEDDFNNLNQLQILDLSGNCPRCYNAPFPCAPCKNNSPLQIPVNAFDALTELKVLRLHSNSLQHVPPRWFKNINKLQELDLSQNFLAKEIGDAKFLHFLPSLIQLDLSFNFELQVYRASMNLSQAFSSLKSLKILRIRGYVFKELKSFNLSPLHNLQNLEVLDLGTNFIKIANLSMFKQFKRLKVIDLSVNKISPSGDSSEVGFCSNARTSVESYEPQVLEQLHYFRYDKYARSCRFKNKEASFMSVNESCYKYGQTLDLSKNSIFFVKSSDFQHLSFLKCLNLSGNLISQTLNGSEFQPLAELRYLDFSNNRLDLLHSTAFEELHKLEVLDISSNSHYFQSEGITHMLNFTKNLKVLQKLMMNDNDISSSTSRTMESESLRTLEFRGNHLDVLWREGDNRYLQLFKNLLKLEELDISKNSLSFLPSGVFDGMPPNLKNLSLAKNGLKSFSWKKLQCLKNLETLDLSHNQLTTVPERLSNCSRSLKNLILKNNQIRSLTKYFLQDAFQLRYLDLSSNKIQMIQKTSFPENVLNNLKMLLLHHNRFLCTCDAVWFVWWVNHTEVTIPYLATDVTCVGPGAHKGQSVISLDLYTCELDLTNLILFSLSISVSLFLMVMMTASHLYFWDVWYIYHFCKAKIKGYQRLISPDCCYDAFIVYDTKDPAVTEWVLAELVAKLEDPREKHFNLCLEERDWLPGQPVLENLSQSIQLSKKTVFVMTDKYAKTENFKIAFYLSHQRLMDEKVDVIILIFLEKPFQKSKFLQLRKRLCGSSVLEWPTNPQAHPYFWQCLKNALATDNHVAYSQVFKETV
- method: TLR7/8/9 Inhibition Reporter Assays (TLR7)
- setupConditions: HEK-Blue cells overexpressing human TLR7, SEAP reporter, stimulated with TLR7 ligand gardiquimod
Give log10 of IC50, with IC50 taken in nM.

COCCN1CC2(CCN(c3ccc(-c4cc5c(nc(-c6ccc(OC)c(OC)c6)n5C)c(C)n4)cc3)CC2)C1 [Example 103] ... 3.23
Cc1cc(-c2nc3c(C)nc(-c4ccc(N5CCN(CC(C)C)CC5)cc4)cc3n2C)cc(C)n1 [Example 14] ... 3.65
Cc1nc(-c2ccc(N3CCC(N4CCCC4)CC3)cc2F)cc2c1nc(-c1ccc(S(C)(=O)=O)cc1)n2C [Example 43] ... 3.59
COc1ccc(-c2nc3c(C)nc(-c4ccc(N5CCN(C6CCC6)CC5)cc4)cc3n2C)cc1OC [Example 19] ... 2.93
COc1cc(-c2nc3c(C)nc(-c4ccc(N5CCN(C(C)C)CC5)cc4)cc3n2C)cn2ncnc12 [Example 9] ... 2.67
COc1ccc(-c2nc3c(C)nc(-c4ccc(N5CC6(C5)CN(C(C)C)C6)cc4)cc3n2C)cc1OC [Example 76] ... 3.26
COc1ccc(-c2nc3c(C)nc(-c4ccc(N5CCN(CC(C)C)CC5)cc4)cc3n2C)cc1OC [Example 17] ... 3.64
Cc1nc(C2CCN(C3CCN(CC(C)(C)O)CC3)CC2)cc2c1nc(-c1ccc(S(C)(=O)=O)cc1)n2C [Example 40] ... 3.96
Cc1nc(-c2ccc(C(=O)NC3CN(Cc4ccccc4)C3)cc2)cc2c1nc(-c1ccc(S(C)(=O)=O)cc1)n2C [Example 49] ... 3.74
COC1CCN(Cc2ccc(-c3ccc(-c4cc5c(nc(-c6ccc(S(C)(=O)=O)cc6)n5C)c(C)n4)cc3)nc2)CC1 [Example 50] ... 3.04

Asked: Provide the documented log10(IC50) with human TLR7 (Homo sapiens, UniProt Q9NYK1) as the system for Cc1nc(-c2ccc(N3CCN(CC(C)C)CC3)cc2)cc2c1nc(-c1ccc(S(C)(=O)=O)cc1)n2C [Example 7]
Given back: 3.85

Asked: Provide the documented log10(IC50) with human TLR7 (Homo sapiens, UniProt Q9NYK1) as the system for Cc1nc(-c2ccc(N3CC4(CCN(C(C)C)CC4)C3)cc2)cc2c1nc(-c1ccc(S(C)(=O)=O)cc1)n2C [Example 63]
Given back: 3.15

Asked: Provide the documented log10(IC50) with human TLR7 (Homo sapiens, UniProt Q9NYK1) as the system for CC(C)CN1CC2(CCN(c3ccc(-c4cc5c(cn4)nc(-c4ccc(S(C)(=O)=O)cc4)n5C4CC4)cc3)CC2)C1 [Example 86]
Given back: 3.83

Asked: Provide the documented log10(IC50) with human TLR7 (Homo sapiens, UniProt Q9NYK1) as the system for COc1ccc(-c2nc3c(C)nc(-c4ccc(N5C[C@@H]6CN(C7CCC7)C[C@@H]6C5)cc4)cc3n2C)cc1OC [Example 66]
Given back: 3.36

Asked: Provide the documented log10(IC50) with human TLR7 (Homo sapiens, UniProt Q9NYK1) as the system for COc1ccc(-c2nc3c(C)nc(-c4ccc(N5CC6(C5)CN(C5CCC5)C6)cc4)cc3n2C)cc1OC [Example 77]
Given back: 2.94

Asked: Provide the documented log10(IC50) with human TLR7 (Homo sapiens, UniProt Q9NYK1) as the system for Cc1nc(C2CCN(C3CCN(CC(C)C)CC3)CC2)cc2c1nc(-c1ccc(S(C)(=O)=O)cc1)n2C [Example 39]
Given back: 2.96

Asked: Provide the documented log10(IC50) with human TLR7 (Homo sapiens, UniProt Q9NYK1) as the system for Cc1cc(-c2nc3c(C)nc(-c4ccc(N5CCN(C6CCC6)CC5)cc4)cc3n2C)cc(C)n1 [Example 16]
Given back: 3.32

Asked: Provide the documented log10(IC50) with human TLR7 (Homo sapiens, UniProt Q9NYK1) as the system for COc1ccc(-c2nc3c(C)nc(-c4ccc(N5CC6(C5)CN(C5COC5)C6)cc4)cc3n2C)cc1OC [Example 102]
Given back: 3.96

Asked: Provide the documented log10(IC50) with human TLR7 (Homo sapiens, UniProt Q9NYK1) as the system for Cc1nc(-c2ccc(CN3CCC(N4CCOCC4)CC3)cc2)cc2c1nc(-c1ccc(S(C)(=O)=O)cc1)n2C1CC1 [Example 48]
Given back: 3.58
